Where do the numbers come from? From patent US20230263786A1.

Measurement Description: clinical
Assay type: in vivo, human
Measurement Setup: both sexes, human, in vivo, 40 mg
Parameter Measured: Cmax (ng/mL)
Report only the number, with the unit ng/mL understood.

Lookup: I would be grateful if you could share the reported Cmax for CCC(C)(C)C(=O)O[C@H]1C[C@@H](C)C=C2C=C[C@H](C)[C@H](CC[C@@H](O)C[C@@H](O)CC(=O)O)[C@H]21 [β-hydroxysimvastatin acid] .
Found: 1850

* * *

Measurement Description: Phase I single-dose study, moderate hepatic impairment versus normal hepatic function
Type: in vivo, human
Measurement Setup: both sexes, human, plasma, oral, 450 mg, single 450 mg, Normal Liver Function, median
Parameter Measured: Tmax (h)
# unit: h | format: bare number

Lookup: // Tmax lookup, key: O=C(O)CNC(=O)c1ncc(-c2cccc(Cl)c2)cc1O
Found: 2.5

* * *

Measurement Description: Phase 1 oral iron interaction study, Cohort 3 (fasting): dried ferrous sulfate slow release
Format: in vivo, human
Measurement Setup: male, human, plasma, oral; 150 mg with dried ferrous sulfate slow release (210 mg iron), fasting; read-out: Cmax, LS geometric mean
Parameter Measured: Cmax (ng/mL)
Respond numerically; units are ng/mL and should not be typed.

Lookup: Which Cmax is reported for this molecule? O=C(O)CNC(=O)c1ncc(-c2cccc(Cl)c2)cc1O [Compound 1]
Found: 2140

* * *

Measurement Description: Phase I single-dose study, moderate hepatic impairment versus normal hepatic function
Assay type: in vivo, human
Measurement Setup: both sexes, human, plasma, oral, 450 mg, single 450 mg, Moderate Hepatic Impairment, mean ± SD; read-out: Volume of distribution (Vd/F), total
Parameter Measured: Vd/F
Answer by giving the amount and then stating its unit.

Lookup: Any idea what its Vd/F is? The molecule is O=C(O)CNC(=O)c1ncc(-c2cccc(Cl)c2)cc1O
Found: 12.3 L

* * *

Measurement Description: Phase 1 oral iron interaction study, Cohort 3 (fasting): dried ferrous sulfate slow release
Format: in vivo, human
Measurement Setup: male, human, plasma, oral, 150 mg; read-out: AUC(0-inf), LS geometric mean
Parameter Measured: AUC(0-inf) (µg·h/mL)
Report the figure in µg·h/mL without appending any unit label.

Lookup: Dear colleague, I am looking for the recorded AUC(0-inf) of the following molecule: O=C(O)CNC(=O)c1ncc(-c2cccc(Cl)c2)cc1O
Found: 128

* * *

Measurement Description: Phase I calcium acetate interaction study
Assay type: in vivo, human
Measurement Setup: human, plasma, oral, 300 mg, Vadadustat administered 1 hour prior to calcium acetate, fasting; read-out: AUC0-∞
Parameter Measured: AUC(0-inf) (µg·h/mL)
The answer is to be given in µg·h/mL; state only the numeric part.

Lookup: Which AUC(0-inf) value belongs to O=C(O)CNC(=O)c1ncc(-c2cccc(Cl)c2)cc1O ?
Found: 133

* * *

Measurement Description: Phase I calcium acetate interaction study
Assay type: in vivo, human
Measurement Setup: human, plasma, oral, 300 mg, Vadadustat administered 2 hours after calcium acetate; read-out: Elimination half-life (t1/2) (converted)
Parameter Measured: half-life (h)
The figure you give is taken to be in h; do not add the unit.

Lookup: I am curious: what half-life value has been reported for O=C(O)CNC(=O)c1ncc(-c2cccc(Cl)c2)cc1O ?
Found: 4.84

* * *

Measurement Description: Phase I interaction study Part 2 Arm 2: pravastatin
Assay type: in vivo, human
Measurement Setup: both sexes, human, plasma, oral; Treatment P + V: pravastatin 40 mg + vadadustat 600 mg QD; read-out: AUC0-inf, Geometric LSM
Parameter Measured: AUC(0-inf) (µg·h/mL)
Dear colleague, please return just the value in µg·h/mL, with no unit written.

Lookup: I am curious: what AUC(0-inf) value has been reported for CC[C@H](C)C(=O)O[C@H]1C[C@H](O)C=C2C=C[C@H](C)[C@H](CC[C@@H](O)C[C@@H](O)CC(=O)O)[C@H]21 ?
Found: 137
